Target: T1, human IL-23 (human, UniProt P29460 23-328; Q9NPF7 20-189)
T1 construct: Recombinant (Ebioscience); HIS-tagged in flow cytometry, biotinylated in some assays; also called hIL-23; rhIL-23
T1 sequence 1: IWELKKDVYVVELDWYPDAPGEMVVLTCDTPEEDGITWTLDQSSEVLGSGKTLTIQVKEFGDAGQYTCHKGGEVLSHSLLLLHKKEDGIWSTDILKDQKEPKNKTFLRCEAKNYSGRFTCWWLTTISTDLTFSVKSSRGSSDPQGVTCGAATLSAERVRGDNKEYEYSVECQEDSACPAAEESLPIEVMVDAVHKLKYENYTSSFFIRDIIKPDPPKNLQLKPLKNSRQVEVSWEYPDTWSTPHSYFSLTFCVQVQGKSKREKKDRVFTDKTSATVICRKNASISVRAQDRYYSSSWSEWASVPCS
T1 sequence 2: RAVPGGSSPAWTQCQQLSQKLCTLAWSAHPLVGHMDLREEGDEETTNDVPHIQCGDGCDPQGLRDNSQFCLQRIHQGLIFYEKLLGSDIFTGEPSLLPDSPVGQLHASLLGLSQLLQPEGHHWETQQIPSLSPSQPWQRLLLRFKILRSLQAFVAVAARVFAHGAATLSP
Test: SPR, IgG on Protein A
Recorded endpoint: koff

Binder	Result
Antibody 7 (antibody, human IgG1, kappa, V domains shown, Antibody 1 with heavy chain C95N) VH: EVQLQQSGADLVRSGASIKLSCTASGFNIKDYYMHWVKQRPEQGLEWIGWIDPENGDTEYAPKFQGKATMTADTSSNTAYLQLSSLTSEDTAVYYCNANKELRYFDVWGAGTTVTVSS VL: DIVLTQSPATLSVTPGDSVSLSCRASQSISINLHWYQQKSHESPRLLIKFASQSISGIPSRFSGYGSGTDFTLSINSVETEDFGRYFCQQSNSWPLTFGAGTKLELKR	0.000147 s⁻¹
Antibody 4 (antibody, human IgG1, kappa, V domains shown, Antibody 1 with heavy chain M34L) VH: EVQLQQSGADLVRSGASIKLSCTASGFNIKDYYLHWVKQRPEQGLEWIGWIDPENGDTEYAPKFQGKATMTADTSSNTAYLQLSSLTSEDTAVYYCNACKELRYFDVWGAGTTVTVSS VL: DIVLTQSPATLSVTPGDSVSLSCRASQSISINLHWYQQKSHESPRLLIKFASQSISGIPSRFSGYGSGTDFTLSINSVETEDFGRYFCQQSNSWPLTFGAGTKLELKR	0.000158 s⁻¹
Antibody 3 (antibody, human IgG1, kappa, V domains shown, Antibody 1 with light chain W94F) VH: EVQLQQSGADLVRSGASIKLSCTASGFNIKDYYMHWVKQRPEQGLEWIGWIDPENGDTEYAPKFQGKATMTADTSSNTAYLQLSSLTSEDTAVYYCNACKELRYFDVWGAGTTVTVSS VL: DIVLTQSPATLSVTPGDSVSLSCRASQSISINLHWYQQKSHESPRLLIKFASQSISGIPSRFSGYGSGTDFTLSINSVETEDFGRYFCQQSNSFPLTFGAGTKLELKR	0.000111 s⁻¹
Antibody 1 (antibody, human IgG1, kappa, V domains shown, Chimeric PMA204, human IgG1/kappa) VH: EVQLQQSGADLVRSGASIKLSCTASGFNIKDYYMHWVKQRPEQGLEWIGWIDPENGDTEYAPKFQGKATMTADTSSNTAYLQLSSLTSEDTAVYYCNACKELRYFDVWGAGTTVTVSS VL: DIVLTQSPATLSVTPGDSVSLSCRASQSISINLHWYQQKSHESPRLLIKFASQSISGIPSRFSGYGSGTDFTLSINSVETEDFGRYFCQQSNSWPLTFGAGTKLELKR	0.000146 s⁻¹
